Listing of recorded Kd by entry.
Target: T1, human GPVI protein, soluble extracellular domain (D1 and D2) (human, UniProt Q9HCN6 21-267)
T1 construct: extracellular domain; also called hGPVI; human glycoprotein VI
T1 sequence (looked up): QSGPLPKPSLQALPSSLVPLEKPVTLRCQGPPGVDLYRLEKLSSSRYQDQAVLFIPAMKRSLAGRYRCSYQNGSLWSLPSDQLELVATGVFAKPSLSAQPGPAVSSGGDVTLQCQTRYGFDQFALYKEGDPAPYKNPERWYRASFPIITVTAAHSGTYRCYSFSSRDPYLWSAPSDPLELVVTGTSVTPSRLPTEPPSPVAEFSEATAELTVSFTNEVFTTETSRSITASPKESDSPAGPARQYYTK
Experiment: SPR (Biacore 3000), human GPVI immobilised, Fab analyte
The figure you give is taken to be in nM; do not add the unit.

binder	unit-of-measure	quantitative-result
humanized anti-GPVI Fab VL1/VH2 (Fab, V domains shown, Recombinant Fab: VH fused to CH1 of human IGHG1 (Q569F4), HC ends in DKTHT; VL fused to human constant kappa (Q502W4); also called VL1 with VH2) VH: QVQLQESGPGLVAPSQSLSITCTVSGFSLTGYGVNWVRQPPSRGLEWLGMIWGDGSTDYQSTLKSRLSISKDNSKSQVFLKMNSLTTDDTARYYCARDLPMDYWGQGTSVTVSS VL: DIQMTQSPSSLSASVGGRVTITCKASQDINKYIAWYQHKPGKGPSLLIHYTSTLQPGVPSRFSGSGSGRDYSFSISNLQPEDIATYYCLQYANLLTFGGGTKLEIKR	nM	0.2
humanized anti-GPVI Fab VL3/VH2 (Fab, V domains shown, Recombinant Fab: VH fused to CH1 of human IGHG1 (Q569F4), HC ends in DKTHT; VL fused to human constant kappa (Q502W4); also called VL3 with VH2) VH: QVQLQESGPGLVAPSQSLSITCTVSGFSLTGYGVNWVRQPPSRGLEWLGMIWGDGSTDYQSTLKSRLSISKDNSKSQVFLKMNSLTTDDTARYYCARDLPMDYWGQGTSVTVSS VL: DIQMTQSPSSLSASVGGRVTITCKASQDINKYIAWYQHKPGKGPSLLIHYTSTLQPGVPSRFSGSGSGRDYSFSISNLQPEDIATYYCLQYALLLTFGGGTKLEIKR	nM	0.2
humanized anti-GPVI Fab VL2/VH2 (Fab, V domains shown, Recombinant Fab: VH fused to CH1 of human IGHG1 (Q569F4), HC ends in DKTHT; VL fused to human constant kappa (Q502W4); also called VL2 with VH2) VH: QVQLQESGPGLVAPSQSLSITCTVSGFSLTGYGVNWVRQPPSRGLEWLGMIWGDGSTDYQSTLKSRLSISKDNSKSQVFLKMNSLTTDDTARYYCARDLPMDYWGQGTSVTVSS VL: DIQMTQSPSSLSASVGGRVTITCKASQDINKYIAWYQHKPGKGPSLLIHYTSTLQPGVPSRFSGSGSGRDYSFSISNLQPEDIATYYCLQYAHLLTFGGGTKLEIKR	nM	0.3

Next binder, Kd to be filled in.
Any idea what its Kd is? The binder is humanized anti-GPVI Fab VL1/VH4 (Fab, V domains shown, Recombinant Fab: VH fused to CH1 of human IGHG1 (Q569F4), HC ends in DKTHT; VL fused to human constant kappa (Q502W4); also called VL1 with VH4) VH: QVQLQESGPGLVAPSQSLSITCTVSGFSLTYYGVNWVRQPPSRGLEWLGMIWGDGSTDYQSTLKSRLSISKDNSKSQVFLKMNSLTTDDTARYYCARDLPMDYWGQGTSVTVSS VL: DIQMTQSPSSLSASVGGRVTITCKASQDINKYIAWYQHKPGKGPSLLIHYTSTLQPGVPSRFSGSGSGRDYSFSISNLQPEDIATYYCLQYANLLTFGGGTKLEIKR
0.2
